# Read-out: Monokine induced gamma interferon (MIG), CXCL9 (gene 4283)
# test_description: BSK_SAg_MIG: BioMAP Diversity Plus: SAg Assay for Monokine induced gamma interferon (MIG) Biomarker Activity (AID 2283092)
# test_parameters: primary human HUVEC with PBMC; actives raise or lower the signal
The source made the active and inactive calls. How the source made its calls: active means hit-call score of the fitted dose curve at least 0.9, where 1 is the maximum; inactive means score below 0.9.
measurement_label: AC50

input_smiles | result
NS(=O)(=O)c1cc2c(cc1Cl)NCNS2(=O)=O | inactive
CNCc1cc(F)ccc1Oc1ccc(Cl)c(Cl)c1 | inactive
COc1cc(-c2nc(NC(=O)c3cc4cc(C)cc(C)c4n3CC(=O)O)sc2CCC2CCCCC2)c(OC)cc1Cl | 4.63 µM (active)
CN[C@H]1CC[C@@H](c2ccc(Cl)c(Cl)c2)c2ccc(S(N)(=O)=O)cc21 | 31.2 µM (active)
Cc1ccc(C)c(C)c1 | inactive
C[Si]1(C)O[Si](C)(C)O[Si](C)(C)O[Si](C)(C)O1 | inactive
CC1(C)NC(=O)NC1=O | inactive
Cc1cc(=O)[nH]c(=S)[nH]1 | inactive

* * *

# Read-out: Pyruvate Dehydrogenase Kinase 4 (PDK4), PDK4 (gene 5166)
# test_description: LTEA_HepaRG_PDK4: Life Technologies and Expression Analysis (LTEA) Assay for Pyruvate Dehydrogenase Kinase 4 (PDK4) using HepaRG (AID 2283525)
# test_parameters: mRNA level, 48 h; actives raise or lower the signal
Active and inactive are the calls of the source. Rule for the calls: active = hit-call score of the fitted dose curve at least 0.9, where 1 is the maximum; inactive = score below 0.9.
Possible outcomes: True = active, False = inactive

input_smiles | answer_label
Cc1ccccc1Cl | False
O=C(N[C@@H](Cc1ccccc1)[C@@H](O)C(=O)N1C[C@@H](O)[C@@H](O)C1)c1cc2cc(Cl)ccc2[nH]1 | False
COc1ccc2c(c1)c(CC(=O)O)c(C)n2C(=O)c1ccc(Cl)cc1 | False
CN[C@H]1CC[C@@H](c2ccc(Cl)c(Cl)c2)c2ccc(S(N)(=O)=O)cc21 | True

* * *

# test_description: ATG_FoxO_CIS: Attagene CIS-FACTORIAL HepG2 Assay for human Forkhead box O (FoxO) (AID 2282943)
# test_parameters: HepG2 Attagene cis-reporter, FoxO element, mRNA; actives raise or lower the signal
The source made the active and inactive calls. How the source made its calls: active means hit-call score of the fitted dose curve at least 0.9, where 1 is the maximum; inactive means score below 0.9.
Possible outcomes: active, inactive

compound | answer_label
O=C(OCCCCCOC(=O)c1ccccc1)c1ccccc1 | inactive
Cc1nc(-c2ccc3c(c2)CCN(CCC2CCC(NC(=O)/C=C/c4ccc(F)cc4)CC2)CC3)no1 (centres undefined) | inactive
Cc1c(C(=O)O)c(O)cc2c1C(=O)c1c(O)c([C@@H]3O[C@H](CO)[C@@H](O)[C@H](O)[C@H]3O)c(O)c(O)c1C2=O | inactive
C=CCc1ccc(O)c(OC)c1 | inactive
COCCOC[C@H](CC1(C(=O)NC2CCC(C(=O)O)CC2)CCCC1)C(=O)Oc1ccc2c(c1)CCC2 (some centres undefined) | inactive
CC(=O)OCCOCCOCCOC(C)=O | inactive
NCCO | inactive
CCCCCCCCCCCCCCCCCC(=O)O | inactive
CCOc1ccc2c(c1)C(C)=CC(C)(C)N2 | active

* * *

# Read-out: Forkhead box O3 (FOXO3), FOXO3 (gene 2309)
# test_description: LTEA_HepaRG_FOXO3: Life Technologies and Expression Analysis (LTEA) Assay for Forkhead box O3 (FOXO3) using HepaRG (AID 2283459)
# test_parameters: mRNA level, 48 h; actives raise or lower the signal
Calls of active or inactive are those of the source. How the source made its calls: active means hit-call score of the fitted dose curve at least 0.9, where 1 is the maximum; inactive means score below 0.9.
Possible outcomes: t for active, f for inactive

compound | answer_label
CNCc1cc(F)ccc1Oc1ccc(Cl)c(Cl)c1 | f
Cc1ccc(C(C)C)c(O)c1 | f
CCCCC(CC)COC(=O)CC(C(=O)OCC(CC)CCCC)S(=O)(=O)O (stereo not drawn) | t

* * *

# Read-out: Thrombomodulin, THBD (gene 7056)
# test_description: BSK_CASM3C_Thrombomodulin: BioMAP Diversity Plus: CASM3C Assay for Thrombomodulin Biomarker Activity (AID 2283051);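 further: thrombomodulin protein level measured by ELISA 24 h after dosing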
# test_parameters: primary human coronary artery smooth muscle cells; actives raise or lower the signal
Active and inactive are the calls of the source. How the source made its calls: active means hit-call score of the fitted dose curve at least 0.9, where 1 is the maximum; inactive means score below 0.9.
Possible outcomes: true = active, false = inactive

molecule | answer_label
COc1ccc(C)cc1N | false
O=C(OCCCCCOC(=O)c1ccccc1)c1ccccc1 | false
CCCCN(CCCC)CCCC | false
C[C@]12C=CC(=O)C=C1CC[C@@H]1[C@@H]2C(=O)C[C@@]2(C)[C@H]1CC[C@]2(O)C(=O)CO | false
NS(=O)(=O)c1cc2c(cc1Cl)NCNS2(=O)=O | false
Cc1nc(C)nc(N2C[C@@H](C)N(c3ccnc([C@@H](C)O)n3)[C@@H](C)C2)n1 | false
CCCCCCCCCCCCCO | true
O=C(N[C@@H](Cc1ccccc1)[C@@H](O)C(=O)N1C[C@@H](O)[C@@H](O)C1)c1cc2cc(Cl)ccc2[nH]1 | false
CCCCCCCCCCCC(=O)OC | false
CNC(=O)[C@H]1O[C@@H](n2cnc3c(NCc4cc(Cl)ccc4OCc4cc(C)no4)ncnc32)[C@H](O)[C@@H]1N | false
O=C(O)CCCCC(=O)O | false
CC(=O)OC/C=C(\C)CCC=C(C)C | false
NC(=O)Cn1c(=O)cc(CCN2CCN(c3nccc4sccc34)CC2)c2ccc(F)cc21 | false
CC(=O)C(C)=CC1C(C)=CCCC1(C)C (stereo not drawn) | false
CC(CO)OC(C)CO (stereo not drawn) (tested in a mixture with another compound) | false
CCCCCCCC=O | false
Clc1cc(Cl)c(Cl)cc1Cl | false
Cc1cc(NC(=O)C(=O)O)cc(C)c1Oc1ccc(O)c2c1CCC2 | false
Cc1cccc([N+](=O)[O-])c1C | false
COc1ccc2c(c1)c(CC(=O)O)c(C)n2C(=O)c1ccc(Cl)cc1 | false
CCCCCCCCCCCCCCCC | false
O=c1[nH]cc(F)c(=O)[nH]1 | false
Nc1ccc2c(c1)C(=O)c1ccccc1C2=O | false

* * *

# test_description: APR_HepG2_StressKinase_72hr: Apredica 72-hour HepG2 Assay for Stress Kinase (AID 2282921)
# test_parameters: HepG2 stress kinase (phospho-c-Jun) imaging, actives raise or lower the signal
# Description: APR_HepG2_72hr is a cell-based, multiplexed-readout assay that uses HepG2, a human liver cell line, with measurements taken at 72 hours after chemical dosing in a 384-well plate.APR_HepG2_StressKinase_72hr is one of 10 assay component(s) measured or calculated from the APR_HepG2_72hr assay. […] This assay endpoint, APR_HepG2_StressKinase_72hr, was analyzed with bidirectional fitting relative to DMSO as the negative control and baseline of activity. […]
Activity calls are given as the source filed them. Rule for the calls: active = hit-call score of the fitted dose curve at least 0.9, where 1 is the maximum; inactive = score below 0.9.
Possible outcomes: active, inactive

molecule | answer_label
C=CCc1ccc(O)c(OC)c1 | inactive
CCNc1cccc(C)c1 | inactive
CC1(C)CC(N=C=O)CC(C)(CN=C=O)C1 (stereo not drawn) | inactive
CC(=O)C(C)=CC1C(C)=CCCC1(C)C (stereo not drawn) | inactive
CCCCCCOCCO | inactive
C1CCC(SSC2CCCCC2)CC1 | active
COCCOCCOC | inactive
CCCCCCCCCCC | inactive
Cc1ccc(C)c(C)c1 | inactive
COc1cc(/C=C/C(=O)CC(=O)/C=C/c2ccc(O)c(OC)c2)ccc1O | active
CN1CCCC1=O | inactive
O=C(O)CCCCC(=O)O | inactive
Nc1ccc2c(c1)C(=O)c1ccccc1C2=O | inactive
O=C(N[C@@H](Cc1ccccc1)[C@@H](O)C(=O)N1C[C@@H](O)[C@@H](O)C1)c1cc2cc(Cl)ccc2[nH]1 | inactive
CCOC(=O)CCC(=O)OCC | inactive
Oc1ccc2c(c1)OC[C@@H](N1CCC(O)(c3ccc(F)cc3)CC1)[C@H]2O | inactive
O=C(OCCCCCOC(=O)c1ccccc1)c1ccccc1 | inactive
Cc1cccc(C)c1O | inactive
Cc1ccc(C(C)C)c(O)c1 | inactive
NS(=O)(=O)c1cc2c(cc1Cl)NCNS2(=O)=O | inactive
Nc1nc(N)c2nc(CNc3ccc(C(=O)N[C@@H](CCC(=O)O)C(=O)O)cc3)cnc2n1 | inactive
NCCO | inactive
CCCCCC(=O)O | inactive
CC=Cc1ccc(O)c(OC)c1 | inactive
CCCCN(CCCC)CCCC | inactive
COC(=O)c1ccc(O)cc1 | inactive
Cc1nc(C)nc(N2C[C@@H](C)N(c3ccnc([C@@H](C)O)n3)[C@@H](C)C2)n1 | inactive
CCc1c(C(=O)NN2CCCCC2)nn(-c2ccc(Cl)cc2Cl)c1-c1ccc(Br)cc1 | active

* * *

# test_description: ATG_CRE_CIS: Attagene CIS-FACTORIAL HepG2 Assay for human cAMP Responsive Element (CRE) binding protein 3 (AID 2282926)
# test_parameters: HepG2 CRE cis-reporter, Attagene multiplexed mRNA; actives raise or lower the signal
Activity calls are given as the source filed them. How the source made its calls: active means hit-call score of the fitted dose curve at least 0.9, where 1 is the maximum; inactive means score below 0.9.
Possible outcomes: 1 = active, -1 = inactive

input_smiles | answer_label
Nc1ccccc1N | 1
O=C(OCCCCCOC(=O)c1ccccc1)c1ccccc1 | -1
CCCCCC(=O)O | -1
